# study system: hGLP-1R (Homo sapiens, UniProt P43220)
# Sequence (P43220 24-463): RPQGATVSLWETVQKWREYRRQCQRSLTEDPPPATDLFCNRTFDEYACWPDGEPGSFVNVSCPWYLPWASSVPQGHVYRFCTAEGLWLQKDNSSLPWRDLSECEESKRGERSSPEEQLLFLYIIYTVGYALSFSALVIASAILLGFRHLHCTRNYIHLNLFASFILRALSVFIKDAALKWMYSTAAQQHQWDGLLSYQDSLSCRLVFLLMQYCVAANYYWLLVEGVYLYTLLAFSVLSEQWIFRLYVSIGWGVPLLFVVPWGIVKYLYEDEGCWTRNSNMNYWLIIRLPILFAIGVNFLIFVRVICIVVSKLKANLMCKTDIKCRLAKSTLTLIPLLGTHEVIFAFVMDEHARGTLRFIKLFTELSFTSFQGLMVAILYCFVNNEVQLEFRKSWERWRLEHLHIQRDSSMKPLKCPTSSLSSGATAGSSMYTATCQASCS
# method: cell-based or functional assay
readout: cAMP Rel EC50, nM (1% HSA) (nM)
Give bare numbers, in nM.

// below: answered binders
- binder: "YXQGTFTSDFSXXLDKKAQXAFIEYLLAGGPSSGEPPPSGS (synthetic construct; SITE 2: note = 2-Aminoisobutyric Acid; SITE 12: note = L-ornithine; SITE 13: note = alpha-methyl-leucine; SITE 17: note = Lysine is chemically modified through conjugation of the epsilon-amino group of the Lysine side chain with (2-[2-(2-Amino-ethoxy)-ethoxy]-acetyl)-(gamma-Glu)) [Example 153]"
  cAMP Rel EC50, nM (1% HSA), nM: 488
- binder: "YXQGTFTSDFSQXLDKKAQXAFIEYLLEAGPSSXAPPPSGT (no C-terminal amide; synthetic construct; SITE 2: note = 2-Aminoisobutyric Acid; SITE 13: note = alpha-methyl-leucine; SITE 17: note = Lysine is chemically modified through conjugation of the epsilon-amino group of the Lysine side chain with (2-[2-(2-Amino-ethoxy)-ethoxy]-acetyl)-(gamma-Glu)-CO-(CH2) 16-CO2H; SITE 20: n) [Example 780]"
  cAMP Rel EC50, nM (1% HSA), nM: 211
- binder: "YXQGTFTSDFSXXLDKKAQXAFIEWLLEGGSSSGAPPPSGS (synthetic construct; SITE 2: note = 2-Aminoisobutyric Acid; SITE 12: note = L-ornithine; SITE 13: note = alpha-methyl-leucine; SITE 17: note = Lysine is chemically modified through conjugation of the epsilon-amino group of the Lysine side chain with (2-[2-(2-Amino-ethoxy)-ethoxy]-acetyl)-(gamma-Glu)) [Example 173]"
  cAMP Rel EC50, nM (1% HSA), nM: 293

Prompt line: Item under review: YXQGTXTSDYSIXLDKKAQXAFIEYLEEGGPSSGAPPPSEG (synthetic construct; SITE 2: note = 2-Aminoisobutyric Acid; SITE 6: note = alpha-methyl-L-phenylalanine; SITE 13: note = alpha-methyl-leucine; SITE 17: note = Lysine is chemically modified through conjugation of the epsilon-amino group of the Lysine side chain with (2-[2-(2-Amino-ethoxy)-ethoxy]-ace)) [Example 395] . Reported cAMP Rel EC50, nM (1% HSA)?
Response line: 34.7
